Hey, just so you know, these numbers are from patent US12559461B2.

Tested on: AB5075
Test: Broth microdilution MIC of compound alone (standalone toxicity)
Format: cell-based, Acinetobacter baumannii
Protocol: Bacterial Strains and Antimicrobial Agents. Acinetobacter baumannii clinical isolate 5075 was obtained from Dr. Colin Manoil at the University of Washington. Colonies were grown on lysogeny broth (LB) agar. Cation-adjusted Mueller-Hinton Broth (CAMHB) (catalog number 212322) were purchased from BD Diagnostics. […] Broth microdilution method for MIC determination. […] MIC values were then recorded as the lowest concentration at which no bacterial growth was observed.
result type: MIC

substance smiles | measurement target | result
Cl.Nc1nc(-c2ccc(NC(=O)c3c(Cl)cc(Cl)cc3Cl)cc2)c[nH]1 | AB5075 | 100 µM
Cl.Nc1nc(-c2ccc(NC(=O)c3ccc(Cl)cc3Cl)cc2)c[nH]1 | AB5075 | >200 µM
Cl.Nc1nc(-c2ccc(NC(=O)c3ccc(I)cc3)cc2)c[nH]1 | AB5075 | >200 µM
Cl.Nc1nc(-c2ccc(NC(=O)c3ccc(C(F)(F)F)cc3)cc2)c[nH]1 | AB5075 | >200 µM
Cl.Nc1nc(-c2ccc(NC(=O)c3cccc(I)c3)cc2)c[nH]1 | AB5075 | >200 µM
Cl.Nc1nc(-c2ccc(NC(=O)c3cccc(Br)c3)cc2)c[nH]1 | AB5075 | >200 µM
Cl.Nc1nc(-c2ccc(NC(=O)c3cc(F)c(F)c(F)c3)cc2)c[nH]1 | AB5075 | 100 µM
Cl.Nc1nc(-c2ccc(NC(=O)c3cccc(F)c3)cc2)c[nH]1 | AB5075 | >200 µM
Cl.Nc1nc(-c2ccc(NC(=O)c3ccc(Cl)c(Cl)c3)cc2)c[nH]1 | AB5075 | 100 µM
Cl.Nc1nc(-c2ccc(NC(=O)c3ccc(Br)cc3F)cc2)c[nH]1 | AB5075 | >200 µM
Cl.Nc1nc(-c2ccc(NC(=O)c3cc(I)c(I)c(I)c3)cc2)c[nH]1 | AB5075 | >200 µM
